- Test system: COLO 205 colon
- assayNotes: NCI tumour cell line growth inhibition, 48 h
Catalogue of compounds with associated TGI
measuredProperty: TGI

• COc1ccccc1-c1cc(/C=C2\C(=O)Nc3ncc(Br)cc32)cc(Br)c1O = > 25 µM
• C=CCCCn1ccc2ccccc21 = > 100 µM
• CC(C)(Br)C(Br)CCC(=CCBr)CBr (mixture of isomers) = 10.7 µM
• NC(=NCCCC1(c2ccccc2)CCCC1)Nc1ccc(Cl)cc1 = 3.44 µM
• COc1ccc(C2=Nn3c(nc4sc(C)c(C)c4c3=O)SC2)cc1 = > 100 µM
• CNC1C(O)C(OC2C(N)CC(N)C(OC3OC(CN)=CCC3N)C2O)OCC1(C)O (stereo not drawn) = > 100 µM
• c1ccc(N=C(N2CCOCC2)N(CCN2CCOCC2)c2ccccc2)cc1 = > 100 µM
• O=C(Nc1cccc(NC(=O)C(=O)C2CCC3=C(Sc4ccccc4N3)C2=O)n1)C(=O)C1CCC2=C(Sc3ccccc3N2)C1=O (stereo not drawn) = > 100 µM
• O=c1c(-c2c(-c3ccccc3)oc3ccc(Cl)cc3c2=O)c(-c2ccccc2)oc2ccc(Cl)cc12 = > 100 µM
• CCSC1=N/C(=C\c2ccco2)C(NN)=N1 = > 50 µM
• O=C(Nc1ccc(Cl)cc1)NS(=O)(=O)c1coc2ccccc2c1=O = > 10 µM
• COc1ccccc1/C=C/C(=O)c1c(O)cc2occc2c1OC = > 100 µM
• C[N+](C)(C)CC(=O)N/N=C(\CCC(=O)NCCc1ccccc1)CC(=O)c1ccccc1 = > 100 µM
• CCN(CC)CC.CCOc1ccc(NC(=O)N=C=[N-])cc1.[CH-]1CCCCC1.[CH-]1CCCCC1.[CH-]1CCCCC1.[Cl-].[Sn+4] = 0.0422 µM
• CSc1nc(NC2OCC(OC(C)=O)C(OC(C)=O)C2OC(C)=O)c(N=C(C)C(C)=O)c(=O)n1C (stereo not drawn) = > 100 µM
• CC(C)CC1C(=O)N2CCC[C@H]2C2(O)O[C@](NC(=O)C3C=C4c5cccc6[nH]c(Br)c(c56)C[C@H]4N(C)C3)(C(C)C)C(=O)N12 (stereo partly drawn) = > 100 µM
• CN(C)CCCNC(=O)c1cc(NC(=O)c2cc(NS(=O)(=O)c3ccc4c(c3)C(=O)c3ccccc3C4=O)cn2C)cn1C = > 100 µM
• CC1=CC(=O)CC(C)(C)C1(O)/C=C/C(C)=C/C(=O)O (stereo not drawn) = > 100 µM
• Cc1nn2c(=O)c([N+](=O)[O-])c(/C=C/c3ccco3)nc2s1 = > 100 µM
• C=C1[C@H](OC(=O)C(C)C)[C@@H](OC(C)=O)[C@@H](OC(C)=O)C(C)(C)[C@@H]2O[C@H]2[C@@H](C)C(=O)[C@@]2(OC(C)=O)C[C@@](C)(OC(C)=O)[C@H](OC(C)=O)[C@@H]2[C@H]1OC(C)=O = > 100 µM
• CCOC(=O)/C(C=Nc1c(C)n(C)n(-c2ccccc2)c1=O)=C(/O)c1ccccc1 = > 100 µM
• COC(=O)[C@H]1[C@@H](O)[C@@]2(O)c3c(OC)cc(O[C@@H]4O[C@@H]([C@H](O)CO)CO[C@H]4OC)cc3O[C@@]2(c2ccc(OC)cc2)[C@@H]1c1ccccc1 = 0.00989 µM
• c1ccc(N=c2snc3scc(-c4ccccc4)n23)cc1 = 80.6 µM
• Cc1ccc(S(=O)(=O)N2c3ccccc3[C@H]3CCc4c([nH]c5ccccc45)[C@H]32)cc1 = > 100 µM
• Cc1cc(C(=O)Nc2nc3cccc(Cl)c3n2[C@@H]2CCCCN(C(=O)/C=C/CN(C)C)C2)ccn1 = 22.4 µM
• CO/[N+]([O-])=C\C(=O)N/C=C/C(=O)O = > 100 µM
• CCCc1cc(=O)oc2c(C=O)c(O)cc(O)c12 = 40.8 µM
• O=C(Cc1nc2ccccc2s1)Nc1ccc(Cl)cc1 = > 100 µM
• COc1cc(-c2nc(NC(C)=O)sc2-c2ccnc(NCCNS(=O)(=O)c3ccccc3)n2)ccc1Cl = 6.01 µM
• C1=Nc2ccc(cc2)N=Cc2ccccc2OCc2cccc(n2)COc2ccccc21 = > 100 µM
• N.N.N.N.O=NN1CCCCCC1(P(=O)([O-])[O-])P(=O)([O-])[O-].[Pt+4].[Pt+4] = > 100 µM
• COc1cccc(Cn2c(-c3nonc3N)nc3ccccc32)c1 = 10.1 µM
• COC(=O)C(Cc1ccccc1)NC(=O)C(CCC(=O)OCc1ccccc1)NC(=O)OC(C)(C)C (stereo not drawn) = > 100 µM
